assay: protein stability index of a GFP-peptide fusion (yeast GPS) (PSI 1-4); higher = more stable; sorted into four equal gates, so the index is relative within each strain; conditions: doa10∆
This listing pairs sequences with measured protein stability index.
Attribute measured: protein stability index

INSERT INTO measurements (sequence_string, attribute_measured, test_result) VALUES
  ('SKYLIKQIDIPNFNVEI [ECM29]', 'protein stability index', 1.57),
  ('LLDNEIRIFRSELQRLS [RPT5]', 'protein stability index', 2.4),
  ('NRPNTLDPALLRPGRID [RPT1]', 'protein stability index', 2.72),
  ('REAIRPGHEMEDFLDKS [AAR2]', 'protein stability index', 3.23),
  ('AEQLKISLSVHTLALEF [RRP46]', 'protein stability index', 2.1),
  ('CLFENDLQRLKPLGLDR [ITC1]', 'protein stability index', 2.92),
  ('VFVGTIFAGAFVFQTVF [QCR9]', 'protein stability index', 1.82),
  ('LIIDGFKSYATRTVITD [SMC2]', 'protein stability index', 2.82),
  ('LAFYQVTPEEDEEEDEE [RPL22A]', 'protein stability index', 3.14),
  ('EHGLQITHTENYNDLIV [BRN1]', 'protein stability index', 3.5),
  ('ENDHERGFFHLNEALLQ [CSN12]', 'protein stability index', 3.08),
  ('EALAFTSLVANENDKIY [YDL116W/NUP84]', 'protein stability index', 1.85),
  ('STVSGELNDNPAWFNNP [YMR153W/NUP53]', 'protein stability index', 3.36),
  ('ELKINLPLTEHKSPNLS [SRB4]', 'protein stability index', 2.93);

====

assay: protein stability index of a GFP-peptide fusion (yeast GPS) (PSI 1-4); higher = more stable; sorted into four equal gates, so the index is relative within each strain; details: doa10∆
Each item that follows carries a reported protein stability index.
Attribute measured: protein stability index

INSERT INTO results (sequence_string, test_result) VALUES
  ('GGVDVGPSVESYELRNT [SNF5]', 2.9),
  ('FGKLLQAYQFLNTFGSK [ITC1]', 1.5),
  ('KKSVNKLDKQINMADRS [POP6]', 2.73),
  ('ASVRIKDKFNQIPLHRA [NAS6]', 2.55),
  ('TSIANAFRRIMISEVPS [RPC40]', 1.71),
  ('SVQNLDQLLTDLIETSF [NUT1]', 2.9),
  ('DDFLSKKRKAGRPRGRP [SNF2]', 3.25),
  ('VFLRNRLKYALNGREVK [RPS4A]', 2.93),
  ('IKTRTVHELSKRVHTLL [ISW2]', 1.37),
  ('DKDSTKEVASLPNKSTI [FAS2]', 3.13),
  ('EGMFANANRVFRTRFQD [SMC2]', 2.26),
  ('WSHNGPFETFDHASIRR [CYT1]', 2.79),
  ('YTDELEEDVYLDPLARV [FAS2]', 3.33),
  ('TGKTLLARACAAQTNAT [RPT5]', 2.72),
  ('RENIAMLKRFFPGVKGL [SMC1]', 2.5);

====

test: protein stability index of a GFP-peptide fusion (yeast GPS) (PSI 1-4); higher = more stable; sorted into four equal gates, so the index is relative within each strain; conditions: pdr5∆
Label TRUE for high-side protein stability index (at or above 3) and FALSE for low-side protein stability index (below it).

INSERT INTO results (sequence_string, group) VALUES
  ('DFIKFDQIAVCEISGSI [BRN1]', 'FALSE'),
  ('KKITLQLLDTSNQRFKD [SIN4]', 'TRUE'),
  ('SLISVLEASLNSITKDN [YJL039C/NUP192]', 'FALSE'),
  ('RLGFFYNDQLYVKEKLE [RPN7]', 'TRUE'),
  ('PLNKPLLTEELAKSGST [TAF14]', 'FALSE'),
  ('QWLIMLGICTHLGCVPI [RIP1]', 'FALSE'),
  ('ILLEPIYEVDITVHAPL [SNU114]', 'FALSE'),
  ('KFSDLKFILQILQILNL [YML103C/NUP188]', 'FALSE'),
  ('KELFGEDEDEDLFGDSN [SSN2]', 'TRUE'),
  ('LVTAGVAAAGITASTLL [CYT1]', 'FALSE'),
  ('KLALGIALEGYRLDIIE [RPN2]', 'FALSE'),
  ('GRYAGKKVVIVKPHDEG [RPL27A]', 'FALSE'),
  ('NSITKDNIDYAPMRLAT [YJL039C/NUP192]', 'FALSE');
